Listing: viability at 50 µM of selected molecules
# Tested on: U2OS
# procedureText: Cytotoxicity against human U2OS cells assessed as cell viability at 50 uM after 48 hrs by MTT assay
# Assay type: functional
# testParameters: read-out: Activity
Report the value in % with no unit label.

Previously resolved entries follow.
{"molecule": "CC1(C)CCC[C@](C)([C@H]2CC[C@]3(C)[C@@H]2[C@H](O)C[C@@H]2[C@@]4(C)CC[C@H](OC(=O)C(N)Cc5ccccc5)C(C)(C)[C@@H]4CC[C@]23C)O1 (stereo partly drawn)", "readingUnit": "%", "viability at 50 µM": 10.9}
{"molecule": "CC(C)C(N)C(=O)O[C@H]1CC[C@]2(C)[C@H]3C[C@@H](O)[C@@H]4[C@@H]([C@@]5(C)CCCC(C)(C)O5)CC[C@@]4(C)[C@]3(C)CC[C@H]2C1(C)C (stereo partly drawn)", "readingUnit": "%", "viability at 50 µM": 13.7}
{"molecule": "CSCCC(N)C(=O)O[C@H]1CC[C@]2(C)[C@H]3C[C@@H](O)[C@@H]4[C@@H]([C@@]5(C)CCCC(C)(C)O5)CC[C@@]4(C)[C@]3(C)CC[C@H]2C1(C)C (stereo partly drawn)", "readingUnit": "%", "viability at 50 µM": 11.6}
{"molecule": "CC1(C)CCC[C@](C)([C@H]2CC[C@]3(C)[C@@H]2[C@H](O)C[C@@H]2[C@@]4(C)CC[C@H](O)C(C)(C)[C@@H]4CC[C@]23C)O1", "readingUnit": "%", "viability at 50 µM": 25.7}
{"molecule": "CC(C)CC(N)C(=O)O[C@H]1CC[C@]2(C)[C@H]3C[C@@H](O)[C@@H]4[C@@H]([C@@]5(C)CCCC(C)(C)O5)CC[C@@]4(C)[C@]3(C)CC[C@H]2C1(C)C (stereo partly drawn)", "readingUnit": "%", "viability at 50 µM": 14.3}
{"molecule": "CC1(C)CCC[C@](C)([C@H]2CC[C@]3(C)[C@@H]2[C@H](O)C[C@@H]2[C@@]4(C)CC[C@H](OC(=O)CN)C(C)(C)[C@@H]4CC[C@]23C)O1", "readingUnit": "%", "viability at 50 µM": 12}

Reported viability at 50 µM for `CC(C)=CCC[C@@](C)(O)[C@H]1CC[C@]2(C)[C@@H]1[C@H](O)C[C@@H]1[C@@]3(C)CC[C@H](O[C@@H]4O[C@H](CO)[C@@H](O)[C@H](O)[C@H]4O[C@@H]4O[C@H](CO)[C@@H](O)[C@H](O)[C@H]4O)C(C)(C)[C@@H]3CC[C@]12C` was 81.3

// sample CC1(C)CCC[C@](C)([C@H]2CC[C@]3(C)[C@@H]2[C@H](O)C[C@@H]2[C@@]4(C)CC[C@H](OC(=O)C5CCCN5)C(C)(C)[C@@H]4CC[C@]23C)O1 (stereo partly drawn) , its viability at 50 µM was 8.72

* * *

# Tested on: HepG2
# procedureText: Cytotoxicity against human HepG2 cells assessed as cell viability at 50 uM after 48 hrs by MTT assay
# Format: functional
# testParameters: HepG2, 48 h, read-out: Activity
// reported viability at 50 µM per item
Numeric only. Scale: %

Reference set (6 entries):
{"compound": "CC1(C)CCC[C@](C)([C@H]2CC[C@]3(C)[C@@H]2[C@H](O)C[C@@H]2[C@@]4(C)CC[C@H](OC(=O)C5CCCN5)C(C)(C)[C@@H]4CC[C@]23C)O1 (stereo partly drawn)", "observedProperty": "viability at 50 µM", "obsValue": 6.39}
{"compound": "CC1(C)CCC[C@](C)([C@H]2CC[C@]3(C)[C@@H]2[C@H](O)C[C@@H]2[C@@]4(C)CC[C@H](OC(=O)CN)C(C)(C)[C@@H]4CC[C@]23C)O1", "observedProperty": "viability at 50 µM", "obsValue": 10}
{"compound": "CSCCC(N)C(=O)O[C@H]1CC[C@]2(C)[C@H]3C[C@@H](O)[C@@H]4[C@@H]([C@@]5(C)CCCC(C)(C)O5)CC[C@@]4(C)[C@]3(C)CC[C@H]2C1(C)C (stereo partly drawn)", "observedProperty": "viability at 50 µM", "obsValue": 8.56}
{"compound": "CC1(C)CCC[C@](C)([C@H]2CC[C@]3(C)[C@@H]2[C@H](O)C[C@@H]2[C@@]4(C)CC[C@H](OC(=O)C(N)Cc5ccccc5)C(C)(C)[C@@H]4CC[C@]23C)O1 (stereo partly drawn)", "observedProperty": "viability at 50 µM", "obsValue": 8.82}
{"compound": "CC(C)C(N)C(=O)O[C@H]1CC[C@]2(C)[C@H]3C[C@@H](O)[C@@H]4[C@@H]([C@@]5(C)CCCC(C)(C)O5)CC[C@@]4(C)[C@]3(C)CC[C@H]2C1(C)C (stereo partly drawn)", "observedProperty": "viability at 50 µM", "obsValue": 11.7}
{"compound": "CC(C)=CCC[C@@](C)(O)[C@H]1CC[C@]2(C)[C@@H]1[C@H](O)C[C@@H]1[C@@]3(C)CC[C@H](O[C@@H]4O[C@H](CO)[C@@H](O)[C@H](O)[C@H]4O[C@@H]4O[C@H](CO)[C@@H](O)[C@H](O)[C@H]4O)C(C)(C)[C@@H]3CC[C@]12C", "observedProperty": "viability at 50 µM", "obsValue": 76.2}

GET /value?item= `CC1(C)CCC[C@](C)([C@H]2CC[C@]3(C)[C@@H]2[C@H](O)C[C@@H]2[C@@]4(C)CC[C@H](O)C(C)(C)[C@@H]4CC[C@]23C)O1` &field=viability at 50 µM returns 37.7

Value of viability at 50 µM reported for the compound CC(C)CC(N)C(=O)O[C@H]1CC[C@]2(C)[C@H]3C[C@@H](O)[C@@H]4[C@@H]([C@@]5(C)CCCC(C)(C)O5)CC[C@@]4(C)[C@]3(C)CC[C@H]2C1(C)C (stereo partly drawn) is 15.3
